- experiment-description: qHTS RealTime-Glo MT Cell Viability Assay in HepG2 cells - 40 hour (AID 1224870); also: nearly all actives have a fitted effect of over 50% in size
- condition-notes: RealTime-Glo luminescence; series mostly up to 76.8 µM
Results filed as inconclusive are left out. Active and inactive are the calls of the source. Calls follow the shape of the dose curve; as a rule, active = well fitted cell-killing curve with a large enough effect in the repeat runs; inconclusive = weak or mixed curves, or effect the other way; inactive = flat fitted curve, though single readings scatter.
Labels: true for active, false for inactive

>  <compound>
Nc1nc(F)nc2c1ncn2[C@@H]1O[C@H](CO)[C@@H](O)[C@@H]1O

>  <cat>
false

$$$$
>  <compound>
CC1=CC(=O)CCC1

>  <cat>
false

$$$$
>  <compound>
Cc1nc(-c2ccc(OCC(C)C)c(C#N)c2)sc1C(=O)O

>  <cat>
false

$$$$
>  <compound>
Oc1cc(O)c2c(c1)O[C@H](c1ccc(O)c(O)c1)[C@H](O)C2

>  <cat>
false

$$$$
>  <compound>
CC12CCC(CC1=O)C2(C)C (centres undefined)

>  <cat>
false

$$$$
>  <compound>
CCCCCCCCCCCCI

>  <cat>
true

$$$$
>  <compound>
CC(C)CCCC(C)NCCC(C)C (centres undefined)

>  <cat>
false

$$$$
>  <compound>
CO

>  <cat>
false

$$$$
>  <compound>
CSc1nc(NC2CC2)nc(NC(C)(C)C)n1

>  <cat>
false

$$$$
>  <compound>
CN(C)CCn1nnnc1SCC1=C(C(=O)O)N2C(=O)[C@@H](NC(=O)Cc3csc(N)n3)[C@H]2SC1

>  <cat>
false

$$$$
>  <compound>
CCCCCCOC(=O)c1ccccc1O

>  <cat>
false

$$$$
>  <compound>
COc1cccc(Br)c1

>  <cat>
false

$$$$
>  <compound>
c1ccc(CCCc2ccccn2)cc1

>  <cat>
false

$$$$
>  <compound>
C#CC(C)(O)CC(C)C (centres undefined)

>  <cat>
false

$$$$

###

- system: Luciferin 4-monooxygenase (Photinus pyralis) (UniProt P08659)
- Sequence (P08659 whole entry, looked up): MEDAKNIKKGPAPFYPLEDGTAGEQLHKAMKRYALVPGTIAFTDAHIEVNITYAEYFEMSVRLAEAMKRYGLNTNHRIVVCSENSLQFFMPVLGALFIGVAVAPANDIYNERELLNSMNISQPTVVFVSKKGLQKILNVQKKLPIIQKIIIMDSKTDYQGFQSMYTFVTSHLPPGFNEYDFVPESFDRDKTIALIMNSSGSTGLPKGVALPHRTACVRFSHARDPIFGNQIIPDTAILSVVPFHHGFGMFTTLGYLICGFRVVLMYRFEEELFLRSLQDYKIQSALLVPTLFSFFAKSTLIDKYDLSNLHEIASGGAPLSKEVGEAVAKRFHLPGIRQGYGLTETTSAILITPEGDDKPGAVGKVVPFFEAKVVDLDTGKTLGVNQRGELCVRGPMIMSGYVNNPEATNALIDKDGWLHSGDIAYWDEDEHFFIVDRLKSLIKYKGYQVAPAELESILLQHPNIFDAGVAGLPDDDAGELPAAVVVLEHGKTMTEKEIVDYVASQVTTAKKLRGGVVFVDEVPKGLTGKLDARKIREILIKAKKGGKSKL
- experiment-description: qHTS assay to identify small molecule inhibitors of firefly luciferase (AID 1224835); also: nearly all actives have a fitted effect of over 25% in size
- condition-notes: purified P. pyralis luciferase, luminescence inhibition; series mostly up to 115 µM
Results filed as inconclusive are left out. Active and inactive are the calls of the source. The call rests on the fitted dose curve; in most records, active means well fitted inhibition curve with a large enough effect in the repeat runs; inconclusive means weak or mixed curves; inactive means flat fitted curve, though single readings scatter.
Labels: 1.0 (active), 0.0 (inactive)

>  <molecule>
OC/C=C/c1ccccc1

>  <cat>
0.0

$$$$
>  <molecule>
NS(=O)(=O)c1cc(C2(O)NC(=O)c3ccccc32)ccc1Cl (stereo not drawn)

>  <cat>
0.0

$$$$
>  <molecule>
NC(=O)CCCCC1CCSS1 (stereo not drawn)

>  <cat>
0.0

$$$$
>  <molecule>
CCCCc1ccc(N)cc1

>  <cat>
0.0

$$$$
>  <molecule>
OCCCCCCO

>  <cat>
0.0

$$$$
>  <molecule>
Nc1nc2c(ncn2CCC(CO)CO)c(=O)[nH]1

>  <cat>
0.0

$$$$
>  <molecule>
C[C@H]1O[C@@H](n2cc(F)c(=O)[nH]c2=O)[C@H](O)[C@@H]1O

>  <cat>
0.0

$$$$
>  <molecule>
C#CC(C)(O)CC(C)C (stereo not drawn)

>  <cat>
0.0

$$$$
>  <molecule>
CCCC(=O)O[C@]1(C(=O)CCl)[C@@H](C)C[C@H]2[C@@H]3CCC4=CC(=O)C=C[C@]4(C)[C@@]3(F)C(=O)C[C@@]21C

>  <cat>
0.0

$$$$
>  <molecule>
CCO[Si](C)(OCC)OCC

>  <cat>
0.0

$$$$
>  <molecule>
C=C[Si](OC)(OC)OC

>  <cat>
0.0

$$$$
>  <molecule>
CCCC=O

>  <cat>
0.0

$$$$
>  <molecule>
CC12CCC(CC1=O)C2(C)C (stereo not drawn)

>  <cat>
0.0

$$$$
>  <molecule>
CCN1CCCC(OC(=O)C(c2ccccc2)c2ccccc2)C1 (stereo not drawn)

>  <cat>
0.0

$$$$
>  <molecule>
COc1ccc(NC(C)=O)cc1

>  <cat>
0.0

$$$$
>  <molecule>
NCCNC(=O)c1ccc(Cl)cn1

>  <cat>
0.0

$$$$
>  <molecule>
CC1=CC(=O)CCC1

>  <cat>
0.0

$$$$
>  <molecule>
CCO[Si](CCCN=C=O)(OCC)OCC

>  <cat>
0.0

$$$$
>  <molecule>
CC(C)c1ccc2oc3nc(N)c(C(=O)O)cc3c(=O)c2c1

>  <cat>
1.0

$$$$
>  <molecule>
O=C(O)C(O)[C@H](O)[C@@H](O)[C@H](O)[C@H](O)CO (stereo partly drawn)

>  <cat>
0.0

$$$$
>  <molecule>
O=C(O)c1ccccc1S

>  <cat>
0.0

$$$$
>  <molecule>
CN(C)C(=O)Nc1ccccc1

>  <cat>
0.0

$$$$
>  <molecule>
OCC(O)[C@@H](O)[C@H](O)[C@H](O)CO[C@H]1O[C@H](CO)[C@@H](O)[C@H](O)[C@H]1O (stereo partly drawn)

>  <cat>
0.0

$$$$
>  <molecule>
CCOC(=O)[C@H](CCc1ccccc1)N[C@@H](C)C(=O)N1CCC[C@H]1C(=O)O

>  <cat>
0.0

$$$$
>  <molecule>
CC(C)(O)Cc1ccccc1

>  <cat>
0.0

$$$$
>  <molecule>
COC(C(=O)O)c1ccccc1 (stereo not drawn)

>  <cat>
0.0

$$$$
>  <molecule>
Cc1ncc(CSSCc2cnc(C)c(O)c2CO)c(CO)c1O

>  <cat>
0.0

$$$$
>  <molecule>
CC(=O)O[C@H](CC(=O)[O-])C[N+](C)(C)C

>  <cat>
0.0

$$$$
>  <molecule>
COc1ccc(COC=O)cc1

>  <cat>
0.0

$$$$
>  <molecule>
C=C(C)[C@H]1CC=C(C)CC1

>  <cat>
0.0

$$$$
>  <molecule>
O=Cc1ccccc1[N+](=O)[O-]

>  <cat>
0.0

$$$$
>  <molecule>
O=S(=O)(c1cccc2cnccc12)N1CCCNCC1

>  <cat>
0.0

$$$$
>  <molecule>
C=CC(=O)OCCCCCC

>  <cat>
0.0

$$$$
>  <molecule>
COc1ccc2cc(C=O)ccc2c1

>  <cat>
1.0

$$$$
>  <molecule>
Cc1cc(C)cc(OCC2CNC(=O)O2)c1 (stereo not drawn)

>  <cat>
0.0

$$$$
>  <molecule>
CCc1cc(S(=O)(=O)O)c2cc(C(C)C)cccc1-2

>  <cat>
0.0

$$$$
>  <molecule>
CC(C)(O)c1ccccc1

>  <cat>
0.0

$$$$
>  <molecule>
CC(O)CN(CCCN(C)C)CCCN(C)C (stereo not drawn)

>  <cat>
0.0

$$$$
>  <molecule>
CCCCCCCCCCCl

>  <cat>
0.0

$$$$
>  <molecule>
CO[Si](OC)(OC)OC

>  <cat>
0.0

$$$$
>  <molecule>
Nc1cc(N)cc(C(=O)O)c1

>  <cat>
0.0

$$$$
>  <molecule>
CCN(CC)S(=O)(=O)c1ccc(C(=O)O)cc1

>  <cat>
0.0

$$$$
>  <molecule>
CCN(CC)C(=O)c1ccc(O)c(OC)c1

>  <cat>
0.0

$$$$
>  <molecule>
Cc1nccn1CC1CCc2c(c3ccccc3n2C)C1=O (stereo not drawn)

>  <cat>
0.0

$$$$
>  <molecule>
OC[C@H]1O[C@@H]2O[C@H]3[C@H](O)[C@@H](O)[C@@H](O[C@H]4[C@H](O)[C@@H](O)[C@@H](O[C@H]5[C@H](O)[C@@H](O)[C@@H](O[C@H]6[C@H](O)[C@@H](O)[C@@H](O[C@H]7[C@H](O)[C@@H](O)[C@@H](O[C@H]8[C@H](O)[C@@H](O)[C@@H](O[C@H]9[C@H](O)[C@@H](O)[C@@H](O[C@H]1[C@H](O)[C@H]2O)O[C@@H]9CO)O[C@@H]8CO)O[C@@H]7CO)O[C@@H]6CO)O[C@@H]5CO)O[C@@H]4CO)O[C@@H]3CO

>  <cat>
0.0

$$$$
>  <molecule>
N#CC1(O)CCCCC1

>  <cat>
0.0

$$$$
>  <molecule>
CC1(C)OC(=O)Nc2ccc(Br)cc21

>  <cat>
0.0

$$$$
>  <molecule>
CCCCCC[C@@H](CCC)C(=O)O

>  <cat>
0.0

$$$$
>  <molecule>
C=CCSCC1Nc2cc(Cl)c(S(N)(=O)=O)cc2S(=O)(=O)N1 (stereo not drawn)

>  <cat>
0.0

$$$$
>  <molecule>
CC(C)(C)C(=O)/C=C/c1ccc(Cl)cc1

>  <cat>
1.0

$$$$
>  <molecule>
COc1ccc(N=[N+]([O-])c2ccc(OC)cc2)cc1

>  <cat>
1.0

$$$$
>  <molecule>
C=C(C)C(=O)NCCCN(C)C

>  <cat>
0.0

$$$$
>  <molecule>
OCCN1C[C@H](O)[C@@H](O)[C@H](O)[C@H]1CO

>  <cat>
0.0

$$$$
